- System: trypsin
- Method notes: stability towards proteolysis by trypsin in human serum
- Format: in vitro ADME
- Condition info: human serum, 37° C., 180 mins; read-out: AMOUNT RECOVERED % after 180 mins
Bridge positions count the residues as written; N and C are the ends. Peptide text beside a SMILES is read from it.

Molecule	remaining at 3 h, 1 mg/mL / %
CC(C)C[C@@H]1NC(=O)[C@H](CCCCN)NC(=O)[C@H](CCCCN)NC(=O)[C@@H](N)CSSC[C@@H](C(=O)N[C@@H](CCCCN)C(=O)N[C@H](C(=O)O)[C@@H](C)O)NC(=O)[C@H](CCCCN)NC(=O)[C@H](Cc2ccccc2)NC1=O [Peptide V] (H-CKKLFKCKT-OH; disulfide 1-7)	55
CC(C)C[C@@H]1NC(=O)[C@H](Cc2ccccc2)NC(=O)[C@H](CCCCN)NC(=O)[C@@H](N)CSSC[C@@H](C(=O)O)NC(=O)[C@H](CCCCN)NC(=O)[C@H](CCCCN)NC1=O [Peptide I] (H-CKFLKKC-OH; disulfide 1-7)	70
CC(C)C[C@@H]1NC(=O)[C@H](Cc2ccccc2)NC(=O)[C@H](CCCCN)NC(=O)[C@@H](NC(=O)[C@H](CCCCN)NC(=O)[C@@H](NC(=O)[C@@H](N)CCCCN)[C@@H](C)O)CSSC[C@@H](C(=O)O)NC(=O)[C@H](CCCCN)NC(=O)[C@H](CCCCN)NC1=O [Peptide II] (H-KTKCKFLKKC-OH; disulfide 4-10)	10
CC(C)C[C@@H]1NC(=O)[C@H](CCCCN)NC(=O)[C@H](CCCCN)NC(=O)[C@@H](N)CSSC[C@@H](C(=O)N[C@@H](CCCCN)C(=O)N[C@H](C(=O)N[C@@H](CCCCN)C(=O)O)[C@@H](C)O)NC(=O)[C@H](CCCCN)NC(=O)[C@H](Cc2ccccc2)NC1=O [Peptide IV] (H-CKKLFKCKTK-OH; disulfide 1-7)	0
CC[C@H](C)[C@H](N)C(=O)N[C@@H](CCCCN)C(=O)N[C@H](C(=O)N[C@@H](CCCCN)C(=O)N[C@H]1CSSC[C@@H](C(=O)O)NC(=O)[C@H](CCCCN)NC(=O)[C@H](CCCCN)NC(=O)[C@H](CC(C)C)NC(=O)[C@H](Cc2ccccc2)NC(=O)[C@H](CCCCN)NC1=O)[C@@H](C)O [Peptide VI] (H-IKTKCKFLKKC-OH; disulfide 5-11)	76

###

- Test system: trypsin in human serum
- Method notes: stability towards proteolysis by trypsin in human serum
- Type: in vitro ADME
- Condition info: human serum, 37° C.
- Method: The effects of trypsin present in human serum on Polymyxin "B" and the peptides of invention was determined by combining 10 μl of human serum with 20 μg of the given peptide in 10 μl volume and holding the mixture at a temperature of 37° C. for different intervals of time. At various times, an aliquot of the mixture was processed by HPLC analysis in order to detect the residual amount of the investigated peptide. […]
Bridge positions count the residues as written; N and C are the ends. Peptide text beside a SMILES is read from it.
Some molecules, each annotated with its measured Half-Life Time (t/2).

Molecule	Censoring operator	Half-Life Time (t/2) (min)
CC(C)C[C@@H]1NC(=O)[C@H](Cc2ccccc2)NC(=O)[C@H](CCCCN)NC(=O)[C@@H](N)CSSC[C@@H](C(=O)O)NC(=O)[C@H](CCCCN)NC(=O)[C@H](CCCCN)NC1=O [Peptide I] (H-CKFLKKC-OH; disulfide 1-7)	>	180
CC(C)C[C@@H]1NC(=O)[C@H](CCCCN)NC(=O)[C@H](CCCCN)NC(=O)[C@@H](N)CSSC[C@@H](C(=O)N[C@@H](CCCCN)C(=O)N[C@H](C(=O)O)[C@@H](C)O)NC(=O)[C@H](CCCCN)NC(=O)[C@H](Cc2ccccc2)NC1=O [Peptide V] (H-CKKLFKCKT-OH; disulfide 1-7)	=	240
CC(C)C[C@@H]1NC(=O)[C@H](CCCCN)NC(=O)[C@H](CCCCN)NC(=O)[C@@H](N)CSSC[C@@H](C(=O)N[C@@H](CCCCN)C(=O)N[C@H](C(=O)N[C@@H](CCCCN)C(=O)O)[C@@H](C)O)NC(=O)[C@H](CCCCN)NC(=O)[C@H](Cc2ccccc2)NC1=O [Peptide IV] (H-CKKLFKCKTK-OH; disulfide 1-7)	=	18
CC(C)C[C@@H]1NC(=O)[C@H](Cc2ccccc2)NC(=O)[C@H](CCCCN)NC(=O)[C@@H](NC(=O)[C@H](CCCCN)NC(=O)[C@@H](NC(=O)[C@@H](N)CCCCN)[C@@H](C)O)CSSC[C@@H](C(=O)O)NC(=O)[C@H](CCCCN)NC(=O)[C@H](CCCCN)NC1=O [Peptide II] (H-KTKCKFLKKC-OH; disulfide 4-10)	=	50
